- system: T1, TNFR1 (Homo sapiens, UniProt P19438)
- T1 chain: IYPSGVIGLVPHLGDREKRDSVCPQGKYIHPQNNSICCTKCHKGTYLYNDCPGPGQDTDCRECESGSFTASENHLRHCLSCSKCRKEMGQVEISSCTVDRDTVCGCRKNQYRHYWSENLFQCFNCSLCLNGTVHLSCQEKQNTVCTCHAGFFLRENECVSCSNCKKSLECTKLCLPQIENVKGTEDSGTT
- procedure details: yeast display SC50
I'd be grateful if you could share measured apparent Kd (screen) for these entries.
Your answer is read as nM, so omit the unit and give the number.

Data request: Entry F20S (designed binder) MTLQELLREEALRRAEAEASRYALELLAEKFPEQKEYLLDLAEEIESQIRSLSGVDVEDVRKFLDKEWAWVKELLAEHPAELAEVEAARAARLAELRAEVEAKVAA has what apparent Kd (screen)?
Data returned: 1.05

Data request: Moving on to the next binder: E43R (designed binder) MTLQELLREEALRRAEAEAFRYALELLAEKFPEQKEYLLDLAREIESQIRSLSGVDVEDVRKFLDKEWAWVKELLAEHPAELAEVEAARAARLAELRAEVEAKVAA
Data returned: 0.593

Data request: Moving on to the next binder: V85L (designed binder) MTLQELLREEALRRAEAEAFRYALELLAEKFPEQKEYLLDLAEEIESQIRSLSGVDVEDVRKFLDKEWAWVKELLAEHPAELAELEAARAARLAELRAEVEAKVAA
Data returned: 2.73

Data request: Moving on to the next binder: L27M (designed binder) MTLQELLREEALRRAEAEAFRYALELMAEKFPEQKEYLLDLAEEIESQIRSLSGVDVEDVRKFLDKEWAWVKELLAEHPAELAEVEAARAARLAELRAEVEAKVAA
Data returned: 0.593

Data request: Moving on to the next binder: L6W (designed binder) MTLQEWLREEALRRAEAEAFRYALELLAEKFPEQKEYLLDLAEEIESQIRSLSGVDVEDVRKFLDKEWAWVKELLAEHPAELAEVEAARAARLAELRAEVEAKVAA
Data returned: 3.99

Data request: Moving on to the next binder: W70Q (designed binder) MTLQELLREEALRRAEAEAFRYALELLAEKFPEQKEYLLDLAEEIESQIRSLSGVDVEDVRKFLDKEWAQVKELLAEHPAELAEVEAARAARLAELRAEVEAKVAA
Data returned: 15.2

Data request: Moving on to the next binder: L12T (designed binder) MTLQELLREEATRRAEAEAFRYALELLAEKFPEQKEYLLDLAEEIESQIRSLSGVDVEDVRKFLDKEWAWVKELLAEHPAELAEVEAARAARLAELRAEVEAKVAA
Data returned: 0.718

Data request: Moving on to the next binder: A106H (designed binder) MTLQELLREEALRRAEAEAFRYALELLAEKFPEQKEYLLDLAEEIESQIRSLSGVDVEDVRKFLDKEWAWVKELLAEHPAELAEVEAARAARLAELRAEVEAKVAH
Data returned: 0.718

Data request: Moving on to the next binder: A19Y (designed binder) MTLQELLREEALRRAEAEYFRYALELLAEKFPEQKEYLLDLAEEIESQIRSLSGVDVEDVRKFLDKEWAWVKELLAEHPAELAEVEAARAARLAELRAEVEAKVAA
Data returned: 10.4

Data request: Moving on to the next binder: L7W (designed binder) MTLQELWREEALRRAEAEAFRYALELLAEKFPEQKEYLLDLAEEIESQIRSLSGVDVEDVRKFLDKEWAWVKELLAEHPAELAEVEAARAARLAELRAEVEAKVAA
Data returned: 24.4

Data request: Moving on to the next binder: R14E (designed binder) MTLQELLREEALREAEAEAFRYALELLAEKFPEQKEYLLDLAEEIESQIRSLSGVDVEDVRKFLDKEWAWVKELLAEHPAELAEVEAARAARLAELRAEVEAKVAA
Data returned: 0.653

Data request: Moving on to the next binder: E18F (designed binder) MTLQELLREEALRRAEAFAFRYALELLAEKFPEQKEYLLDLAEEIESQIRSLSGVDVEDVRKFLDKEWAWVKELLAEHPAELAEVEAARAARLAELRAEVEAKVAA
Data returned: 0.539

Data request: Moving on to the next binder: I45D (designed binder) MTLQELLREEALRRAEAEAFRYALELLAEKFPEQKEYLLDLAEEDESQIRSLSGVDVEDVRKFLDKEWAWVKELLAEHPAELAEVEAARAARLAELRAEVEAKVAA
Data returned: 1.54

Data request: Moving on to the next binder: E16M (designed binder) MTLQELLREEALRRAMAEAFRYALELLAEKFPEQKEYLLDLAEEIESQIRSLSGVDVEDVRKFLDKEWAWVKELLAEHPAELAEVEAARAARLAELRAEVEAKVAA
Data returned: 1.05

Data request: Moving on to the next binder: R8C (designed binder) MTLQELLCEEALRRAEAEAFRYALELLAEKFPEQKEYLLDLAEEIESQIRSLSGVDVEDVRKFLDKEWAWVKELLAEHPAELAEVEAARAARLAELRAEVEAKVAA
Data returned: 0.593

Data request: Moving on to the next binder: A91M (designed binder) MTLQELLREEALRRAEAEAFRYALELLAEKFPEQKEYLLDLAEEIESQIRSLSGVDVEDVRKFLDKEWAWVKELLAEHPAELAEVEAARAMRLAELRAEVEAKVAA
Data returned: 0.869

Sourced from paper PMC12416549
